experiment: in vitro
measurement.setup: human, normal human epidermal keratinocytes
Peptide text beside a SMILES is read from it.

{"columns": ["compound", "CC50 at 24 h"],
 "data": [
  ["CSCC[C@H](NC(=O)[C@@H](N)CCCCN)C(=O)NCC(=O)O [HB2268, KMG] (H-Lys-Met-Gly-OH)", "> 500 µg/mL"]
]}
